Data origin, for the record: ChEMBL document CHEMBL1158480

test: Volume of distribution at steady state in human at 130 mg administered 90 mins infusion
Format: ADME, organism-based
condition context: in vivo, iv, read-out: Vdss
assay readout: Vd (L/kg)

molecule_smiles=O=C(O)c1ccc(-n2nc(-c3ccccc3O)nc2-c2ccccc2O)cc1 measured=0.2

----------
test: Volume of distribution at steady state in human at 2.5 mg, iv administered as bolus dose
Type: ADME, organism-based
condition context: in vivo, read-out: Vdss
assay readout: Vd (L/kg)

molecule_smiles=OCCN1CCN(CCCN2c3ccccc3Sc3ccc(C(F)(F)F)cc32)CC1 value_unit=L/kg measured=2.9

----------
test: Volume of distribution at steady state in human at 50 mg, iv
Type: ADME, organism-based
condition context: in vivo, read-out: Vdss
assay readout: Vd (L/kg)

molecule_smiles=COC(=O)c1cnc2n1CCc1ccccc1C2=C1CCN(CCc2ccc(OCc3ccc4ccccc4n3)cc2)CC1 measured=6.03

----------
test: Clearance in human at 200 ug
Format: ADME, organism-based
condition context: in vivo
assay readout: clearance

molecule_smiles=CC(=O)Nc1ccc(C2=NNC(=O)C[C@H]2C)cc1 measured="33.3 mL/min"

----------
test: Volume of distribution at steady state in human administered 1 to 12 g doses with 2 to 3.5 hrs iv infusion
Format: ADME, organism-based
condition context: in vivo, read-out: Vdss
assay readout: Vd (L/kg)

molecule_smiles=Nc1ccn([C@@H]2O[C@H](CO)[C@@H](O)[C@@H]2O)c(=O)n1 assay_readout=Vd measured=0.67

----------
test: Volume of distribution at steady state in human at 1 mg/kg
Type: ADME, organism-based
Parameters: dose 1 mg/kg
condition context: in vivo, read-out: Vdss
assay readout: Vd (L/kg)

molecule_smiles=CC(C)(N)CC(=O)N[C@@H]1CCc2ccccc2N(Cc2ccc(-c3ccccc3-c3nnn[nH]3)cc2)C1=O measured=0.2

----------
test: Clearance in human administered three way cross over study in 11, 10 and 12 healthy subjects at 5, 10, 15 mg dose respectively as 1 hr infusion
Type: ADME, organism-based
condition context: in vivo, intravenous
assay readout: clearance (mL/min/kg)

molecule="CN(c1nc2ccccc2s1)C1CCN(C[C@H](O)COc2ccc(F)c(F)c2)CC1 [LUBELUZOLE]" assay_readout=clearance measured=1.8

----------
test: Volume of distribution at steady state in human at 150 mg, iv
Format: ADME, organism-based
condition context: in vivo, read-out: Vdss
assay readout: Vd (L/kg)

molecule="COCCOC[C@H](CC1(C(=O)N[C@H]2CC[C@@H](C(=O)O)CC2)CCCC1)C(=O)O [CANDOXATRILAT]" assay_readout=Vd measured=0.25

----------
test: Volume of distribution at steady state in human at 0.149 mg/kg, iv
Format: ADME, organism-based
Parameters: dose 0.149 mg/kg, route intravenous
condition context: in vivo, read-out: Vdss
assay readout: Vd (L/kg)

molecule_smiles=Cc1nc(=O)c(C#N)c(NCc2cccnc2)[nH]1 measured=0.39
